assay_readout: IC50

query: What reported IC50 corresponds to Cc1cc2c(cc1C)[n+](Cc1ccccc1Br)cn2Cc1ccc2c(c1)CCO2.[Br-] [B591] on EPHA2 (Homo sapiens, UniProt P29317)?
result: > 500 µM

* * *

assay_readout: IC50

query: What reported IC50 corresponds to "Cc1cc2c(cc1C)[n+](Cc1ccccc1Br)cn2Cc1ccc2c(c1)CCO2.[Br-]" on MET (cMet) (Homo sapiens)?
result: > 500 µM

* * *

target_system: PRKCZ (PKC zeta) (Homo sapiens, UniProt Q05513)
Sequence (Q05513 1-592): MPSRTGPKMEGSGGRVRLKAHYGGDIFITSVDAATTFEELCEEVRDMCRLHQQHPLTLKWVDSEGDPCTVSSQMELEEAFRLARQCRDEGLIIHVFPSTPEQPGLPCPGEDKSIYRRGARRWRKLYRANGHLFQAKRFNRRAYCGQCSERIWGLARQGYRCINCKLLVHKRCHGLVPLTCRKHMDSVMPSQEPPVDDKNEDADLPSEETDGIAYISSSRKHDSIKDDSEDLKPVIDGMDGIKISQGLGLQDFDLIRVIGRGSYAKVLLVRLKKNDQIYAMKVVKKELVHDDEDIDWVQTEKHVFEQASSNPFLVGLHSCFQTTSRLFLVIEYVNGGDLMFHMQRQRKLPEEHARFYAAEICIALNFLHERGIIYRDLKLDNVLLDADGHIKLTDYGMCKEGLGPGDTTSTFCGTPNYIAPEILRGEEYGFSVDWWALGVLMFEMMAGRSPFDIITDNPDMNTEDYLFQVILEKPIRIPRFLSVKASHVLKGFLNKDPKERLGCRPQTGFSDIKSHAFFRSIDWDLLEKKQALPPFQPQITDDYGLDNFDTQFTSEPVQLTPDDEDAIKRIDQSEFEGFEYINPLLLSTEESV
pIC50: −log10 of the molar value.
assay_readout: pIC50

query: Which pIC50 is listed for "Cc1cc2c(cc1C)[n+](Cc1ccccc1Br)cn2Cc1ccc2c(c1)CCO2.[Br-]" ?
result: < 3.30

Taken from paper PMC6756013.
